PROCEDURE_TEXT: Inhibition of aggrecanase
MEASURED_ATTRIBUTE: IC50

SMILES_DATA	MEASURED_ATTRIBUTE	EXPERIMENTAL_RESULT
O=C(C[C@@H](Cc1ccc(-c2ccc3c(c2)OCO3)cc1)C(=O)N[C@@H]1c2ccccc2C[C@@H]1O)NO	IC50	1.5 nM

====

ASSAY_TARGET: A disintegrin and metalloproteinase with thrombospondin motifs 5 (Homo sapiens)
Sequence (Q9UNA0 whole entry): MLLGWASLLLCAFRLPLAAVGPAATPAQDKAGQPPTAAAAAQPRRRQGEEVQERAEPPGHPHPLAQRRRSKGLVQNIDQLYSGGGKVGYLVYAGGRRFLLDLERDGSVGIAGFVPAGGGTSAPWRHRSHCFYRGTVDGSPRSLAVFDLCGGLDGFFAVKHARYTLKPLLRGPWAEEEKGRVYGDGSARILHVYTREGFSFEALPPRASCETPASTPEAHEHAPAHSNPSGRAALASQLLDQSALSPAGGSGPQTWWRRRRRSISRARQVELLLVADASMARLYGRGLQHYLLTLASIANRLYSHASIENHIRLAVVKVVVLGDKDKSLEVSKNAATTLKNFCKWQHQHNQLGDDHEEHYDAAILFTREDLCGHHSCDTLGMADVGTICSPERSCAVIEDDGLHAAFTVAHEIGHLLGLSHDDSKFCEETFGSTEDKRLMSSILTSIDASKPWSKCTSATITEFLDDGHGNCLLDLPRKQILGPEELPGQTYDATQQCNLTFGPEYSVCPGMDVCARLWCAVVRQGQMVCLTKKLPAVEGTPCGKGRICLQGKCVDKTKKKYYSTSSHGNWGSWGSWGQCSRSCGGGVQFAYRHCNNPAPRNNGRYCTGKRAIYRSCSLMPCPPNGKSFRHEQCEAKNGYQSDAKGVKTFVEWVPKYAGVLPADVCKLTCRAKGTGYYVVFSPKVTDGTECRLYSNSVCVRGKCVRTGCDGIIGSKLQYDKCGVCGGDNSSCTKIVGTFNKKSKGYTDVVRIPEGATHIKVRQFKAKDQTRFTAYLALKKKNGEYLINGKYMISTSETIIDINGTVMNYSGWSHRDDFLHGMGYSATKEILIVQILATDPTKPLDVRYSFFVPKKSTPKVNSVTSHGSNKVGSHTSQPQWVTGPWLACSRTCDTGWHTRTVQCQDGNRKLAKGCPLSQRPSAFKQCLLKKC
PROCEDURE_TEXT: Inhibition of human recombinant ADAMTS5 by fluorimetric assay
pIC50: −log10 of the molar value.
Known pIC50 of a selection of molecules
MEASURED_ATTRIBUTE: pIC50

SMILES_DATA	ASSAY_TARGET	MEASURED_ATTRIBUTE	EXPERIMENTAL_RESULT
O=C(O)CC[C@H](NC(=O)c1ccc(-c2ccccc2)cc1)c1nnc(CCc2ccccc2)o1	A disintegrin and metalloproteinase with thrombospondin motifs 5 (Homo sapiens)	pIC50	4.24
COc1cc(CCc2nnc([C@H](CCC(=O)O)NC(=O)c3ccc(-c4ccccc4)cc3)o2)cc(OC)c1OC	A disintegrin and metalloproteinase with thrombospondin motifs 5 (Homo sapiens)	pIC50	5.37
COc1cc(Cc2nnc([C@H](CCC(=O)O)NC(=O)c3ccc(-c4ccccc4)cc3)o2)cc(OC)c1OC	A disintegrin and metalloproteinase with thrombospondin motifs 5 (Homo sapiens)	pIC50	6.10
COc1ccc(CCc2nnc([C@H](CCC(=O)O)NC(=O)c3ccc(-c4ccccc4)cc3)o2)cc1	A disintegrin and metalloproteinase with thrombospondin motifs 5 (Homo sapiens)	pIC50	4.61

====

Known inhibition of a selection of molecules
ASSAY_TARGET: A disintegrin and metalloproteinase with thrombospondin motifs 4 (Homo sapiens)
Sequence (whole entry): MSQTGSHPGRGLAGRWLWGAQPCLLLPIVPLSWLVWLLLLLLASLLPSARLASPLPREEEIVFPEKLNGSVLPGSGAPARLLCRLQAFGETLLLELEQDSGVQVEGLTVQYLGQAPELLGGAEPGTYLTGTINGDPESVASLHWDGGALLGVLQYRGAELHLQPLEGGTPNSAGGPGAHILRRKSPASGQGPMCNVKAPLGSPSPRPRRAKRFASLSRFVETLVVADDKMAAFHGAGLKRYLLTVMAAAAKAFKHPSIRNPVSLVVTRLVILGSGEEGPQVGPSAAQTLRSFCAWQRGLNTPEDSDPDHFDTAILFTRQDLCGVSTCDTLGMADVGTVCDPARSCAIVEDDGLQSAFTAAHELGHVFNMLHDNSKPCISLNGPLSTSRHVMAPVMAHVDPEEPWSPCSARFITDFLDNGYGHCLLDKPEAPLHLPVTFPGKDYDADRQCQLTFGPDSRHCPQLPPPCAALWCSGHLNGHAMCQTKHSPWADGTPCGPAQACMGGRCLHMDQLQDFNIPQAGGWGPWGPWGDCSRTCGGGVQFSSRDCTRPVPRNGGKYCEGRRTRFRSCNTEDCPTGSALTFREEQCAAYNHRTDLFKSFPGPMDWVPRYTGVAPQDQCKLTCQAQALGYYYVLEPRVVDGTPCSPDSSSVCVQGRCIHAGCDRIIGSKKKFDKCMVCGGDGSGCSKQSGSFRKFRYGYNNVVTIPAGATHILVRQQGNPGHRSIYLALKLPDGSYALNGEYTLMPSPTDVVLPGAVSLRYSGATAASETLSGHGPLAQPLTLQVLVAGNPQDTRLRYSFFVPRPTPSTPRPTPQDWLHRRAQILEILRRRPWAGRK
PROCEDURE_TEXT: Inhibition of human recombinant ADAMTS4 at 10 uM by fluorimetric assay

SMILES_DATA	inhibition
COc1ccc(Cc2nnc([C@H](CCC(=O)O)NC(=O)c3ccc(-c4ccccc4)cc3)o2)cc1	21%
O=C(O)CC[C@H](NC(=O)c1ccc(-c2ccccc2)cc1)c1nnc(Cc2ccccc2)o1	26%
O=C(O)CC[C@H](NC(=O)c1ccc(-c2ccccc2)cc1)c1nnc(CCc2ccc(O)cc2)o1	51%
COc1cc(Cc2nnc([C@H](CCC(=O)O)NC(=O)c3ccc(-c4ccccc4)cc3)o2)cc(OC)c1OC	86%
O=C(O)CC[C@H](NC(=O)c1ccc(-c2cccnc2)cc1)c1nnc(CCc2ccccc2)o1	39%
Cc1ccc(CCc2nnc([C@H](CCC(=O)O)NC(=O)c3ccc(-c4ccccc4)cc3)o2)cc1	56%

====

ASSAY_TARGET: A disintegrin and metalloproteinase with thrombospondin motifs 4 (Homo sapiens, UniProt O75173)
PROCEDURE_TEXT: Inhibition of human recombinant ADAMTS4 by fluorimetric assay
Known IC50 of a selection of compounds
MEASURED_ATTRIBUTE: IC50 (µM)

SMILES_DATA	EXPERIMENTAL_RESULT
COc1ccc(CCc2nnc([C@H](CCC(=O)O)NC(=O)c3ccc(-c4ccccc4)cc3)o2)cc1	4.9
O=C(O)CC[C@H](NC(=O)c1ccc(-c2ccccc2)cc1)c1nnc(CCc2ccccc2)o1	9.7
COc1cc(CCc2nnc([C@H](CCC(=O)O)NC(=O)c3ccc(-c4ccccc4)cc3)o2)cc(OC)c1OC	3.3
COc1cc(Cc2nnc([C@H](CCC(=O)O)NC(=O)c3ccc(-c4ccccc4)cc3)o2)cc(OC)c1OC	1.2

====

ASSAY_TARGET: UniProtKB O75173
Sequence (whole entry): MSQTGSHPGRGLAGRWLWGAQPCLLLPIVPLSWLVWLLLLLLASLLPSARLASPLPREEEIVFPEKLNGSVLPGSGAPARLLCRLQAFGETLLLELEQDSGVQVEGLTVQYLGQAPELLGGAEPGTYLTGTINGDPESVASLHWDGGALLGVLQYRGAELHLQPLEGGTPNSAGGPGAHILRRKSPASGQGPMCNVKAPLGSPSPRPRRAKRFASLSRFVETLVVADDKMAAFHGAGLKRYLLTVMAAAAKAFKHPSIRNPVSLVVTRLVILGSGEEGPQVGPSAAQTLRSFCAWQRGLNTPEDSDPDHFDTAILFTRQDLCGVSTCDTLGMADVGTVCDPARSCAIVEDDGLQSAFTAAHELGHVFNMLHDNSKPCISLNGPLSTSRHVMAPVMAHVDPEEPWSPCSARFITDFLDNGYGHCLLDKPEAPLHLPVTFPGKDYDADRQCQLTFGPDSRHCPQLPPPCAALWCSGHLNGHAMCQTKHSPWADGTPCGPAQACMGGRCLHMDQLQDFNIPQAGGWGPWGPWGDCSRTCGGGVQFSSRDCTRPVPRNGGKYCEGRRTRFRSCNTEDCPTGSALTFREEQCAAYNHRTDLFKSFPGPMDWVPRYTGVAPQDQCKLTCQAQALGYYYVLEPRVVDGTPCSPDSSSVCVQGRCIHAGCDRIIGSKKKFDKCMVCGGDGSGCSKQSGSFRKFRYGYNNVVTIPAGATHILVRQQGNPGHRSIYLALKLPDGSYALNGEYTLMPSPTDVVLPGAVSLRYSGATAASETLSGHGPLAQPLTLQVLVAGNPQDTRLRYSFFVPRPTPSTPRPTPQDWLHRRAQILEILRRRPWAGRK
PROCEDURE_TEXT: Inhibition of human recombinant ADAMTS4 at 10 uM by fluorimetric assay
Known inhibition of a selection of compounds
MEASURED_ATTRIBUTE: inhibition (%)

SMILES_DATA	ASSAY_TARGET	EXPERIMENTAL_RESULT
COc1ccc(CCc2nnc([C@H](CCC(=O)O)NC(=O)c3ccc(-c4ccccc4)cc3)o2)cc1	UniProtKB O75173	66
O=C(O)CC[C@H](NC(=O)c1ccc(-c2ccccc2)cc1)c1nnc(C2(c3ccccc3)CC2)o1	UniProtKB O75173	20
O=C(O)CC[C@H](NC(=O)c1ccc(-c2ccncc2)cc1)c1nnc(CCc2ccccc2)o1	UniProtKB O75173	18
CC(C)(c1ccccc1)c1nnc([C@H](CCC(=O)O)NC(=O)c2ccc(-c3ccccc3)cc2)o1	UniProtKB O75173	5
O=C(O)CC[C@H](NC(=O)c1ccc(-c2ccccc2)cc1)c1nnc(CCc2ccccc2)o1	UniProtKB O75173	59
CC(C)(Cc1ccccc1)c1nnc([C@H](CCC(=O)O)NC(=O)c2ccc(-c3ccccc3)cc2)o1	UniProtKB O75173	47
CC(C)(Cc1nnc([C@H](CCC(=O)O)NC(=O)c2ccc(-c3ccccc3)cc2)o1)c1ccccc1	UniProtKB O75173	45
COc1cc(CCc2nnc([C@H](CCC(=O)O)NC(=O)c3ccc(-c4ccccc4)cc3)o2)cc(OC)c1OC	UniProtKB O75173	74
